The following molecules are shown together with reported Kb values.
# targetUnderTest: mu opioid receptor (Cavia porcellus, UniProt A0ACM8Q262)
# Sequence (A0ACM8Q262 1-400): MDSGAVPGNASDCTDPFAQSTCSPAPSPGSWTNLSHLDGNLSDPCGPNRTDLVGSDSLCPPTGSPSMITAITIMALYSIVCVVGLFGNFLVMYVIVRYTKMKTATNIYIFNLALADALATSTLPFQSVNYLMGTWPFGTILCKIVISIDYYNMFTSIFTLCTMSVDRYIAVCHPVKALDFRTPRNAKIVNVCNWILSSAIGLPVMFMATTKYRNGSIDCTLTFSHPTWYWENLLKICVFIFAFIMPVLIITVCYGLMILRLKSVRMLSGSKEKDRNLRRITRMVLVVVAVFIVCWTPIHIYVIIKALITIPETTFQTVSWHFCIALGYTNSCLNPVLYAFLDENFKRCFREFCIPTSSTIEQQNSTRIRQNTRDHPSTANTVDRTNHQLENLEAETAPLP
# method: Antagonism of morphine (mu agonist) in the guinea pig ileum (GPI) preparation
# Assay type: cell-based
# recordedConditions: compound 100 or 200 nM, 15 min incubation, read-out: Ke

# smilesStructure, targetUnderTest, Kb
measured = [
    ("Cc1cccc2c3c([nH]c12)[C@@H]1Oc2c(O)ccc4c2[C@@]12CCN(CC1CC1)[C@H](C4)[C@]2(O)C3", "mu opioid receptor (Cavia porcellus, UniProt A0ACM8Q262)", "19.1 nM"),
    ("Oc1ccc2c3c1O[C@H]1c4[nH]c5c(F)cccc5c4C[C@@]4(O)[C@@H](C2)N(CC2CC2)CC[C@]314", "mu opioid receptor (Cavia porcellus, UniProt A0ACM8Q262)", "5.3 nM"),
    ("COc1cccc2c3c([nH]c12)[C@@H]1Oc2c(O)ccc4c2[C@@]12CCN(CC1CC1)[C@H](C4)[C@]2(O)C3", "mu opioid receptor (Cavia porcellus, UniProt A0ACM8Q262)", "35 nM"),
    ("Cc1ccc2[nH]c3c(c2c1)C[C@@]1(O)[C@H]2Cc4ccc(O)c5c4[C@@]1(CCN2CC1CC1)[C@H]3O5", "mu opioid receptor (Cavia porcellus, UniProt A0ACM8Q262)", "> 160 nM"),
    ("Oc1ccc2c3c1O[C@H]1c4[nH]c5cccc(F)c5c4C[C@@]4(O)[C@@H](C2)N(CC2CC2)CC[C@]314", "mu opioid receptor (Cavia porcellus, UniProt A0ACM8Q262)", "> 125 nM"),
]
